target desc: 11β-HSD1 (Homo sapiens)
protocol details: Inhibition of a microsomal preparation of 11β-HSD1, scintillation proximity assay
Type: biochemical
Design: expressed in transfected cells; host or cells: CHO cells (microsomes)
experimental conditions: at 100 nM; microsomes from CHO cells overexpressing human 11β-HSD1
readout name: inhibition at 0.1 µM (%)

compound | value measured
C[C@@H](c1ccc(C#CC(C)(C)NC(N)=O)cc1)N1CC[C@](CC(C)(C)O)(c2ccccc2)OC1=O [Example 19] | 97.6
C[C@@H](c1ccc(C#Cc2ccccn2)cc1)N1CC[C@](CC(C)(C)O)(c2ccccc2)OC1=O [Example 9] | 96.6

[A] C[C@@H](c1ccc(C#Cc2cc[nH]c(=O)c2)cc1)N1CC[C@](CC(C)(C)O)(c2ccccc2)OC1=O [Example 29]
[B] C[C@@H](c1ccc(C#CC(C)(C)N)cc1)N1CC[C@](CC(C)(C)O)(c2ccccc2)OC1=O [Example 12]
Input: Which has the smaller recorded inhibition at 0.1 µM, A or B ? Answer with the label corresponding to your selection.
Output: B
(B: 63.7%, A: 97.9%)

----------
target desc: 11β-HSD1 (Homo sapiens, UniProt P28845)
Sequence (P28845 whole entry): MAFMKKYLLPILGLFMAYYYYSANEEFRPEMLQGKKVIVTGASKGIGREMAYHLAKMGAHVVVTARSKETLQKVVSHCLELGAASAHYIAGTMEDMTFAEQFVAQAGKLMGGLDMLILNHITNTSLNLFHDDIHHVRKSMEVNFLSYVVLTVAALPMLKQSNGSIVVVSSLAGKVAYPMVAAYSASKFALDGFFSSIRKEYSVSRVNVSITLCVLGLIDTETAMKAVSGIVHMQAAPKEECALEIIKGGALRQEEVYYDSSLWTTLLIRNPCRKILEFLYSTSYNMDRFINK
protocol details: Inhibition of a microsomal preparation of 11β-HSD1, scintillation proximity assay
Type: biochemical
Set-up: expressed in transfected cells; host or cells: CHO cells (microsomes)
experimental conditions: at 100 nM; microsomes from CHO cells overexpressing human 11β-HSD1
Protocol: All reactions were carried out at rt in 96 well clear flexible PET Microbeta plates (PerkinElmer). […] After a 10 minute pre-incubation, 50 μL of enzyme solution containing microsomes isolated from CHO cells overexpressing human 11β-HSD1 (10-20 μg/ml of total protein) was added, and the plates were incubated for 90 minutes at rt. […] The plates were shaken for 120 minutes at rt, and the SPA signal corresponding to [^3H]cortisol was measured on a Microbeta plate reader.
readout name: inhibition at 0.1 µM (%)

smiles data | unit descriptor | value measured
C[C@@H](c1ccc(C#CC(C)(C)C(=O)O)cc1)N1CC[C@](CC(C)(C)O)(c2ccccc2)OC1=O | % | 86
C[C@@H](c1ccc(C#CC(C)(C)C(=O)NC2CC2)cc1)N1CC[C@](CC(C)(C)O)(c2ccccc2)OC1=O | % | 93.5
C[C@@H](c1ccc(C#CC(C)(C)NC(=O)C2CC2)cc1)N1CC[C@](CC(C)(C)O)(c2ccccc2)OC1=O | % | 92.2
COC(=O)NC1(C#Cc2ccc([C@H](C)N3CC[C@](CC(C)(C)O)(c4ccccc4)OC3=O)cc2)CCCCC1 | % | 92.4

----------
target desc: 11β-HSD1 (Homo sapiens, UniProt P28845)
protocol details: Inhibition of a microsomal preparation of 11β-HSD1, scintillation proximity assay
Type: biochemical
Design: expressed in transfected cells; host or cells: CHO cells (microsomes)
experimental conditions: at 100 nM; microsomes from CHO cells overexpressing human 11β-HSD1
Procedure: All reactions were carried out at rt in 96 well clear flexible PET Microbeta plates (PerkinElmer). […] After a 10 minute pre-incubation, 50 μL of enzyme solution containing microsomes isolated from CHO cells overexpressing human 11β-HSD1 (10-20 μg/ml of total protein) was added, and the plates were incubated for 90 minutes at rt. […] The plates were shaken for 120 minutes at rt, and the SPA signal corresponding to [^3H]cortisol was measured on a Microbeta plate reader.
readout name: inhibition at 0.1 µM (%)

smiles data | inhibition at 0.1 µM (%)
COc1cc(C#Cc2ccc([C@H](C)N3CC[C@](CC(C)(C)O)(c4ccccc4)OC3=O)cc2)ccn1 | 103
COC(=O)NC(C)(C)C#Cc1ccc([C@H](C)N2CC[C@](CC(C)(C)O)(c3ccccc3)OC2=O)cc1 | 94.5
C[C@@H](c1ccc(C#CC2(N)CCCCC2)cc1)N1CC[C@](CC(C)(C)O)(c2ccccc2)OC1=O | 82.5
C[C@@H](c1ccc(C#CC(C)(C)NS(C)(=O)=O)cc1)N1CC[C@](CC(C)(C)O)(c2ccccc2)OC1=O | 93.7
